Exercise: state measured Relative cAMP EC50 for each of the binders provided.
target: human glucagon receptor (human) (UniProt P47871)
Sequence (P47871 26-477): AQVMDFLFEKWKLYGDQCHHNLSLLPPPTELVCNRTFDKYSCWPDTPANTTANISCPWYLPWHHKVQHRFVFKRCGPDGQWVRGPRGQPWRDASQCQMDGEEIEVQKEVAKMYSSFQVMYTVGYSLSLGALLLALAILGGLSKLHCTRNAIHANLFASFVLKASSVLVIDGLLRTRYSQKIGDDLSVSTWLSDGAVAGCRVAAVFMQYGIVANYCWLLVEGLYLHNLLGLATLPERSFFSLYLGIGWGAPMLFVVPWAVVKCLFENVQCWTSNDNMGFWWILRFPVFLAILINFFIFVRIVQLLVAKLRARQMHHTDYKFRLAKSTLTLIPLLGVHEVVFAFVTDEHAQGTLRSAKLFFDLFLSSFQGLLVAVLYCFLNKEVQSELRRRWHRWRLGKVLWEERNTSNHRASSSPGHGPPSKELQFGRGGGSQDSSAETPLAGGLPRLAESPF
procedure details: cell-based or functional assay
Starred links: 1 amine or outer side, 2 acyl side, 3 side chain; linkers in the order of their positions; H or OH if unused. Non-standard residues stand in square brackets, D forms with d. Groups on a side chain read outwards from the residue. No end group written: not given here. *: point of attachment. C20 diacid = O=C(O)CCCCCCCCCCCCCCCCCCC(=O)*; Phe(4-CN) = N#Cc1ccc(C[C@H](N)C(=O)O)cc1; αMePhe(2-F) = C[C@](N)(Cc1ccccc1F)C(=O)O; γGlu = O=C(O)[C@H](CCC(=O)[*:2])N[*:1]; αMeL = CC(C)C[C@](C)(N)C(=O)O; AEEA = NCCOCCOCC(=O)O; Aib = CC(C)(N)C(=O)O
Answers are plain numbers, in nM.

YXQGTFTSDFSXXLDKKAQXAFIEYLLEAGPSSGAPPPSGT (non-natural residues, AEEA-γGlu-C18 diacid acylation; synthetic construct; SITE 2: note = 2-Aminoisobutyric Acid; SITE 12: note = L-ornithine; SITE 13: note = alpha-methyl-leucine; SITE 17: note = Lysine is chemically modified through conjugation of the epsilon-amino group of the Lysine side chain with (2-[2-(2-Amino-ethoxy)-ethoxy]-acetyl)-(gamma-Glu)) [Example 213] = 3.61
Y[Aib]QGT[αMePhe(2-F)]TSD[Phe(4-CN)]SKLLDKIAQK([AEEA-γGlu-C20 diacid])AFIEYLIEGGPSSGAPPPSGS-NH2 [Example 363] = 13.6
YXQGTXTSDXXIXLDXKAQXXFIEXLQEGGPSSGEPPPSGTE (synthetic construct; SITE 2: note = 2-Aminoisobutyric Acid; SITE 6: note = alpha-methyl-2-fluoro-L-phenylalanine; SITE 10: note = 3-(4-Pyridyl)-L-alanine; SITE 11: note = alpha-methyl-L-serine; SITE 13: note = alpha-methyl-leucine; SITE 16: note = L-ornithine; SITE 17: note = Lysine is chemically mo) [Example 504] = 2.83
YXQGTFTSDXSQXLDKKAQXAFIEYLLEAGPSSGAPPPSGX (synthetic construct; SITE 2: note = 2-Aminoisobutyric Acid; SITE 10: note = 3-(4-Pyridyl)-L-alanine; SITE 13: note = alpha-methyl-leucine; SITE 17: note = Lysine is chemically modified through conjugation of the epsilon-amino group of the Lysine side chain with (2-[2-(2-Amino-ethoxy)-ethoxy]-acetyl)) [Example 822] = 11.6
YXQGTXTSDXSILLDKKAQXAFIEYLEEGGPSSGAPPPSGSGE (non-natural residues, C18 diacid acylation, C-terminal amide; synthetic construct; SITE 2: note = 2-Aminoisobutyric Acid; SITE 6: note = alpha-methyl-2-fluoro-L-phenylalanine; SITE 10: note = 3-(4-Pyridyl)-L-alanine; SITE 17: note = Lysine is chemically modified through conjugation of the epsilon-amino group of the Lysine side chain with (gamma-Glu)2-CO-(CH2)1) [Example 618] = 5.57
YXQGTXTSDXXIXLDXKAQXXFIEYLIEGGPSSGEPPPSGT (synthetic construct; SITE 2: note = 2-Aminoisobutyric Acid; SITE 6: note = alpha-methyl-2-fluoro-L-phenylalanine; SITE 10: note = 3-(4-Pyridyl)-L-alanine; SITE 11: note = alpha-methyl-L-serine; SITE 13: note = alpha-methyl-leucine; SITE 16: note = L-ornithine; SITE 17: note = Lysine is chemically mo) [Example 502] = 3.8
YXQGTFTSDXSQXLDKKAQXAFIEXLIEXGPSSGEPPPSGEEE (non-natural residues (Aib, 4Pal, Me4Pal, αMeL); lipidated Lys; C-amide; synthetic construct; SITE 2: note = 2-Aminoisobutyric Acid; SITE 10: note = 3-(4-Pyridyl)-L-alanine; SITE 13: note = alpha-methyl-leucine; SITE 17: note = Lysine is chemically modified through conjugation of the epsilon-amino group of the Lysine side chain with (gamma-Glu)2-CO-(CH2)16-CO2H; SITE 20:) [Example 1124] = 6.97
YXQGTXTSDYSIXLDXKAQXAFIEYLLEGGPSSGAPPPSEG (synthetic construct; SITE 2: note = 2-Aminoisobutyric Acid; SITE 6: note = alpha-methyl-2-fluoro-L-phenylalanine; SITE 13: note = alpha-methyl-leucine; SITE 16: note = L-ornithine; SITE 17: note = Lysine is chemically modified through conjugation of the epsilon-amino group of the Lysine side chain w) [Example 404] = 4.1

Hi team, please reply with Relative cAMP EC50 for each item in this list.
1. Y[Aib]QGTFTSDYSK[αMeL]LDKK([AEEA-γGlu-C20 diacid])AQQAFIEYLIAGGPSSGAPPPSSE-NH2 [Example 322]
2. YXQGTFTSDXSKXLDKKAQXAFIEYLIEXGESSGEPPPSGE (synthetic construct; SITE 2: note = 2-Aminoisobutyric Acid; SITE 10: note = 3-(4-Pyridyl)-L-alanine; SITE 13: note = alpha-methyl-leucine; SITE 17: note = Lysine is chemically modified through conjugation of the epsilon-amino group of the Lysine side chain with (2-[2-(2-Amino-ethoxy)-ethoxy]-acetyl)) [Example 281]
3. YXQGTFTSDFSXXLDKKAQXAFIEYLLEAGPSSGXPPPSGX (synthetic construct; SITE 2: note = 2-Aminoisobutyric Acid; SITE 12: note = L-ornithine; SITE 13: note = alpha-methyl-leucine; SITE 17: note = Lysine is chemically modified through conjugation of the epsilon-amino group of the Lysine side chain with (2-[2-(2-Amino-ethoxy)-ethoxy]-acetyl)2-(gamma-Glu)) [Example 258]
4. YXQGTFTSDFSRXLDKKAQXAFIEYLLEGGPSSGAPPPSGS (synthetic construct; SITE 2: note = 2-Aminoisobutyric Acid; SITE 13: note = alpha-methyl-leucine; SITE 17: note = Lysine is chemically modified through conjugation of the epsilon-amino group of the Lysine side chain with (2-[2-(2-Amino-ethoxy)-ethoxy]-acetyl)2-(gamma-Glu)-CO-(CH2 )16-CO2H; SITE 20:) [Example 144]

5.41
13.7
7.15
14.8
